B1: CPEB3 Ribozyme (parent)
chain: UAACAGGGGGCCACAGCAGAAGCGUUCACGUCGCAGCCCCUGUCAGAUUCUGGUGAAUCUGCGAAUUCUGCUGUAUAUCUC

Variants of: B1
Test: self-cleavage, relative activity (ratio to wild type); higher = more cleavage; in vitro, sequencing
Measured metric: self-cleavage
Form rule: numeric answer, no unit written next to it.

{"Residue string": "UAACAGGGGGCCACAGCAAAAGCGUUCACGUCGCAGCCCGUGUCAGAUUCUGGUGAAUCUGCGAAUUCUGCUGUAUAUCUC [G19A C40G]", "self-cleavage": 0.1}

**Q:** Output self-cleavage of UAACAGGGGACCACAGCAGAAGCGUUCACGUCGCAGCCCCUGUCAGAUUCUGGUGAAUCUGCGCAUUCUGCUGUAUAUCUC [G10A A64C]
**A:** 0.18

**Q:** Output self-cleavage of UAACAGGGGGCCACAGCAGAAGCGUCCACGUCGCAGCACCUGUCAGAUUCUGGUGAAUCUGCGAAUUCUGCUGUAUAUCUC [U26C C38A]
**A:** 0.19

**Q:** Output self-cleavage of UAGCAGGGGGCCACAGCAGAAGCGUUCACGUCGCAGCCCCUGUCAGAUUGUGGUGAAUCUGCGAAUUCUGCUGUAUAUCUC [A3G C50G]
**A:** 0.8

**Q:** Output self-cleavage of UAACAGGGGGUCACAGCAGAAGCGUUCACGUCGCAGCCCCUGUCAGAUUCUGGUGAAUCUGCGAACUCUGCUGUAUAUCUC [C11U U66C]
**A:** 0.2
